ASSAY_SYSTEM: HLA-B*15:42
ASSAY_METHOD_TEXT: IEDB peptide-MHC binding, purified MHC/competitive/fluorescence; filed as Kd, often an IC50 or EC50 that approximates it; bounds were set here for any values at or beyond the usual limits of such assays
COND: source organism: human gammaherpesvirus 4
ENDPOINT: Kd (nM)
# output: bare number, implied unit nM

Problem: Item `AQRAAGPSV` has what recorded Kd?
Result: 1190

---

ASSAY_SYSTEM: HLA-B*45:06
ASSAY_METHOD_TEXT: IEDB peptide-MHC binding, purified MHC/competitive/fluorescence; filed as Kd, often an IC50 or EC50 that approximates it; bounds were set here for any values at or beyond the usual limits of such assays
COND: source organism: Homo sapiens
pKd: −log10 of the molar value.
ENDPOINT: pKd

Problem: Item `TFMDHVLRY` has what recorded pKd?
Result: ≤ 5.30

---

ASSAY_SYSTEM: HLA-B*08:01
ASSAY_METHOD_TEXT: IEDB peptide-MHC binding, purified MHC/direct/fluorescence; filed as Kd, often an IC50 or EC50 that approximates it; bounds were set here for any values at or beyond the usual limits of such assays
COND: source organism: Mycobacterium tuberculosis C
ENDPOINT: Kd (µM)
# output: bare number, implied unit µM

Problem: Item `IIRTENRPL` has what recorded Kd?
Result: 3.06

---

ASSAY_SYSTEM: HLA-B*51:01
ASSAY_METHOD_TEXT: IEDB peptide-MHC binding, purified MHC/competitive/fluorescence; filed as Kd, often an IC50 or EC50 that approximates it; bounds were set here for any values at or beyond the usual limits of such assays
COND: source organism: Toxoplasma gondii
ENDPOINT: Kd

Problem: Item `VSSHKGWAK` has what recorded Kd?
Result: ≥ 20 µM

---

ASSAY_SYSTEM: HLA-A*02:12
ASSAY_METHOD_TEXT: IEDB peptide-MHC binding, purified MHC/direct/fluorescence; filed as Kd, often an IC50 or EC50 that approximates it; bounds were set here for any values at or beyond the usual limits of such assays
COND: source organism: Salmonella enterica subsp. enterica serovar Typhimurium str. LT2
ENDPOINT: Kd

Problem: # returns recorded Kd (system: HLA-A*02:12) for `WTLETLPRV`
Result: ≤ 1 nM

---

ASSAY_SYSTEM: HLA-B*15:17
ASSAY_METHOD_TEXT: IEDB peptide-MHC binding, purified MHC/direct/fluorescence; filed as Kd, often an IC50 or EC50 that approximates it; bounds were set here for any values at or beyond the usual limits of such assays
COND: source organism: Influenza A virus (A/finch/Canada/NS1301/2001(H3N8))
ENDPOINT: pKd
Units for pKd: none; it is -log10 of a concentration expressed in mol/L.

Problem: # returns recorded pKd (system: HLA-B*15:17) for `GTFEFTSFF`
Result: 8.23

---

ASSAY_SYSTEM: HLA-B*40:01
ASSAY_METHOD_TEXT: IEDB peptide-MHC binding, purified MHC/competitive/fluorescence; filed as Kd, often an IC50 or EC50 that approximates it; bounds were set here for any values at or beyond the usual limits of such assays
COND: source organism: Salmonella enterica subsp. enterica serovar Typhi
ENDPOINT: Kd
Answer with the figure and its unit, nothing else.

Problem: Item `REWSGLNYL` has what recorded Kd?
Result: 3.3 nM

---

ASSAY_SYSTEM: HLA-A*02:19
ASSAY_METHOD_TEXT: IEDB peptide-MHC binding, purified MHC/direct/fluorescence; filed as Kd, often an IC50 or EC50 that approximates it; bounds were set here for any values at or beyond the usual limits of such assays
COND: source organism: Orthohantavirus puumalaense
ENDPOINT: Kd

Problem: Item `QIQAGNFHW` has what recorded Kd?
Result: ≥ 20 µM

---

ASSAY_SYSTEM: HLA-B*51:01
ASSAY_METHOD_TEXT: IEDB peptide-MHC binding, purified MHC/competitive/fluorescence; filed as Kd, often an IC50 or EC50 that approximates it; bounds were set here for any values at or beyond the usual limits of such assays
COND: source organism: Mycobacterium tuberculosis variant bovis
pKd: −log10 of the molar value.
ENDPOINT: pKd

Problem: Item `TPREAPYEL` has what recorded pKd?
Result: ≤ 4.70

---

ASSAY_SYSTEM: HLA-B*51:01
ASSAY_METHOD_TEXT: IEDB peptide-MHC binding, purified MHC/competitive/fluorescence; bounds were set here for any values at or beyond the usual limits of such assays
COND: source organism: Homo sapiens
pIC50: −log10 of the molar value.
For each record, write down the corresponding pIC50.

Problem: Item `RQSSGSSSSGF` has what recorded pIC50?
Result: ≤ 4.70

Problem: Item `ELFARSSDPR` has what recorded pIC50?
Result: ≤ 4.70

Problem: Item `LVTMGTGTFGR` has what recorded pIC50?
Result: ≤ 4.70

---

ASSAY_SYSTEM: HLA-B*15:42
ASSAY_METHOD_TEXT: IEDB peptide-MHC binding, purified MHC/competitive/fluorescence; filed as Kd, often an IC50 or EC50 that approximates it; bounds were set here for any values at or beyond the usual limits of such assays
COND: source organism: Yersinia pseudotuberculosis IP 31758
pKd: −log10 of the molar value.
ENDPOINT: pKd

Problem: Item `RQMRASAPL` has what recorded pKd?
Result: ≤ 5.30

---

ASSAY_SYSTEM: HLA-A*02:11
ASSAY_METHOD_TEXT: IEDB peptide-MHC binding, purified MHC/competitive/fluorescence; filed as Kd, often an IC50 or EC50 that approximates it; bounds were set here for any values at or beyond the usual limits of such assays
COND: source organism: Cryptosporidium parvum Iowa II
pKd: −log10 of the molar value.
ENDPOINT: pKd

Problem: Item `DLAQDPMLI` has what recorded pKd?
Result: ≤ 4.70

---

ASSAY_SYSTEM: HLA-B*48:01
ASSAY_METHOD_TEXT: IEDB peptide-MHC binding, purified MHC/direct/fluorescence; filed as Kd, often an IC50 or EC50 that approximates it; bounds were set here for any values at or beyond the usual limits of such assays
COND: source organism: Mycobacterium tuberculosis C
pKd: −log10 of the molar value.
ENDPOINT: pKd

Problem: Item `IIRTENRPL` has what recorded pKd?
Result: ≤ 4.70

---

ASSAY_SYSTEM: HLA-A*23:01
ASSAY_METHOD_TEXT: IEDB peptide-MHC binding, purified MHC/competitive/radioactivity; filed as Kd, often an IC50 or EC50 that approximates it; bounds were set here for any values at or beyond the usual limits of such assays
COND: source organism: Lassa virus GA391
ENDPOINT: Kd (nM)
# output: bare number, implied unit nM

Problem: Item `EGNETPGGY` has what recorded Kd?
Result: 174

---

ASSAY_SYSTEM: HLA-B*58:01
ASSAY_METHOD_TEXT: IEDB peptide-MHC binding, purified MHC/competitive/fluorescence; filed as Kd, often an IC50 or EC50 that approximates it; bounds were set here for any values at or beyond the usual limits of such assays
COND: source organism: Entamoeba histolytica HM-1:IMSS
ENDPOINT: Kd

Problem: Item `EVIRATYPS` has what recorded Kd?
Result: ≥ 5 µM

---

ASSAY_SYSTEM: HLA-A*29:02
ASSAY_METHOD_TEXT: IEDB peptide-MHC binding, purified MHC/competitive/radioactivity; filed as Kd, often an IC50 or EC50 that approximates it; bounds were set here for any values at or beyond the usual limits of such assays
COND: source organism: Lymphocytic choriomeningitis virus (strain Armstrong)
ENDPOINT: Kd

Problem: # returns recorded Kd (system: HLA-A*29:02) for `ICISLSNSF`
Result: ≥ 78.9 µM

---

ASSAY_SYSTEM: HLA-B*45:01
ASSAY_METHOD_TEXT: IEDB peptide-MHC binding, purified MHC/competitive/radioactivity; filed as Kd, often an IC50 or EC50 that approximates it; bounds were set here for any values at or beyond the usual limits of such assays
COND: source organism: Mammarenavirus juninense
pKd: −log10 of the molar value.
ENDPOINT: pKd

Problem: Item `SDTQIPGVC` has what recorded pKd?
Result: ≤ 4.29

Problem: Item `DETKKQVNLM` has what recorded pKd?
Result: ≤ 4.48

---

ASSAY_SYSTEM: HLA-B*40:01
ASSAY_METHOD_TEXT: IEDB peptide-MHC binding, purified MHC/direct/fluorescence; filed as Kd, often an IC50 or EC50 that approximates it; bounds were set here for any values at or beyond the usual limits of such assays
COND: source organism: Reston ebolavirus - Reston
ENDPOINT: pKd
Units for pKd: none; it is -log10 of a concentration expressed in mol/L.

Problem: # returns recorded pKd (system: HLA-B*40:01) for `DEMVCKWLL`
Result: 6.41

---

ASSAY_SYSTEM: HLA-A*23:01
ASSAY_METHOD_TEXT: IEDB peptide-MHC binding, purified MHC/direct/fluorescence; filed as Kd, often an IC50 or EC50 that approximates it; bounds were set here for any values at or beyond the usual limits of such assays
COND: source organism: Encephalitozoon cuniculi GB-M1
ENDPOINT: Kd

Problem: Item `EAYCALLCK` has what recorded Kd?
Result: ≥ 20 µM
